outcome_measure: melting point (°C)
Dear colleague, please return just the value in °C, with no unit written.

Inquiry: Give the measured melting point for O=c1oc2ccccc2c(O)c1C1c2cc([N+](=O)[O-])ccc2Oc2c1c(=O)oc1ccccc21 (centres unmarked)
Reply text: 315.7

Inquiry: Give the measured melting point for `COc1cc(C(c2c(O)c3ccccc3oc2=O)c2c(O)c3ccccc3oc2=O)cc([N+](=O)[O-])c1O`
Reply text: 199.6

Inquiry: Give the measured melting point for `O=c1oc2ccccc2c(O)c1C(c1ccccc1[N+](=O)[O-])c1c(O)c2ccccc2oc1=O`
Reply text: 202

Inquiry: Give the measured melting point for COc1cc(OC)c2c(c1)Oc1c(c(=O)oc3ccccc13)C2c1c(O)c2ccccc2oc1=O (centres unmarked)
Reply text: 287.9

Inquiry: Give the measured melting point for `O=c1oc2ccccc2c(O)c1C(c1ccc(F)cc1)c1c(O)c2ccccc2oc1=O`
Reply text: 214.5

Inquiry: Give the measured melting point for `O=c1oc2ccccc2c(O)c1C(c1ccc(Br)cc1)c1c(O)c2ccccc2oc1=O`
Reply text: 267.2

Inquiry: Give the measured melting point for `CSc1ccc(C(c2c(O)c3ccccc3oc2=O)c2c(O)c3ccccc3oc2=O)cc1`
Reply text: 258.7

Inquiry: Give the measured melting point for `O=c1oc2ccccc2c(O)c1C(c1cccc(Br)c1)c1c(O)c2ccccc2oc1=O`
Reply text: 287

Inquiry: Give the measured melting point for `O=c1oc2ccccc2c(O)c1C(c1ccc(O)c(O)c1)c1c(O)c2ccccc2oc1=O`
Reply text: 227.5

Inquiry: Give the measured melting point for `COc1ccc(OC)c(C(c2c(O)c3ccccc3oc2=O)c2c(O)c3ccccc3oc2=O)c1`
Reply text: 181.6

Inquiry: Give the measured melting point for `O=c1oc2ccccc2c(O)c1C(c1ccc(C(F)(F)F)cc1)c1c(O)c2ccccc2oc1=O`
Reply text: 271.3
